- Tested on: 885724-159-R-J1-PDC complex spheroid viability
- Procedure Summary: Anticancer human tumor 885724-159-R-J1-PDC patient-derived pancreatic adenocarcinoma cell line growth inhibition [POLQ]
- Measurement Setup: second compound 0.0316 µM; first compound 1 µM; hits give low values
Readout Label: viability, T/C (%)
// return numeric value only (unit: %, not printed)

>  <Compound>
C=CCn1c(=O)c2cnc(Nc3ccc(N4CCN(C)CC4)cc3)nc2n1-c1cccc(C(C)(C)O)n1 + Nc1ccc(C#CCN(C(=O)Cc2ncc(C(F)(F)F)cc2C(F)(F)F)c2ccc(F)cc2)nn1

>  <viability, T/C / %>
47.3

$$$$
>  <Compound>
O=C(c1cc(Cc2n[nH]c(=O)c3ccccc23)ccc1F)N1CCN(C(=O)C2CC2)CC1 + Nc1ccc(C#CCN(C(=O)Cc2ncc(C(F)(F)F)cc2C(F)(F)F)c2ccc(F)cc2)nn1

>  <viability, T/C / %>
88.2

$$$$

Could you now look at the following compound, please?
viability, T/C recorded for this compound, CCCS(=O)(=O)Nc1ccc(F)c(C(=O)c2c[nH]c3ncc(-c4ccc(Cl)cc4)cc23)c1F + Cc1cccc(N(C)C(=O)C2C(O)CCN2c2nc(C)cc(C(F)(F)F)c2C#N)c1 , is 142

* * *

- Test system: 885724-159-R-J1-PDC complex spheroid viability
- Procedure Summary: Anticancer human tumor 885724-159-R-J1-PDC cell line growth inhibition [POLQ];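 further: spheroids exposed to compounds for 7 days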
- Measurement Setup: second compound 10 µM; first compound 3.16 µM; hits give low values
Parameter: viability, T/C. Scope: all listed entries.
// return numeric value only (unit: %, not printed)

Consider the worked cases shown below.
>  <Compound>
CC1COCCN1c1cc(C2(O)CC3CCC(C2)O3)c2cnn(-c3ccn[nH]3)c2n1 (stereo not drawn) + COC1C(OC(N)=O)C(O)C(Oc2ccc3c(O)c(NC(=O)c4ccc(O)c(CC=C(C)C)c4)c(=O)oc3c2C)OC1(C)C

>  <Target Or Test System>
885724-159-R-J1-PDC complex spheroid viability

>  <Data Value>
34.9

$$$$
>  <Compound>
CCc1cc2c(N3CCc4c(cc(Cn5ccnc5)cc4-c4cn(C)nc4C(F)(F)F)C3=O)ccnc2c(OC)n1 + Nc1ccc(C#CCN(C(=O)Cc2ncc(C(F)(F)F)cc2C(F)(F)F)c2ccc(F)cc2)nn1

>  <Target Or Test System>
885724-159-R-J1-PDC complex spheroid viability

>  <Data Value>
81.5

$$$$

viability, T/C recorded for this compound, C=CC(=O)N1CCN(c2nc(=O)n(-c3c(C)ccnc3C(C)C)c3nc(-c4c(O)cccc4F)c(F)cc23)C(C)C1 (stereo not drawn) + Cc1cccc(N(C)C(=O)C2C(O)CCN2c2nc(C)cc(C(F)(F)F)c2C#N)c1 , is 107

* * *

- Tested on: 885724-159-R-J1-PDC complex spheroid viability
- Procedure Summary: Anticancer human tumor 885724-159-R-J1-PDC cell line growth inhibition [POLQ];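 further: spheroids exposed to compounds for 7 days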
- Measurement Setup: second compound 0.0316 µM; first compound 1 µM; hits give low values
Readout Label: viability, T/C

>  <Compound>
CC1COCCN1c1cc(C2(O)CC3CCC(C2)O3)c2cnn(-c3ccn[nH]3)c2n1 (stereo not given) + Cc1cccc(N(C)C(=O)C2C(O)CCN2c2nc(C)cc(C(F)(F)F)c2C#N)c1

>  <Data Value>
39.6%

$$$$

viability, T/C recorded for this compound, C#Cc1c(F)ccc2cc(O)cc(-c3ncc4c(N5CC6CCC(C5)N6)nc(OCC56CCCN5CC(F)C6)nc4c3F)c12 (stereo not given) + COC1C(OC(N)=O)C(O)C(Oc2ccc3c(O)c(NC(=O)c4ccc(O)c(CC=C(C)C)c4)c(=O)oc3c2C)OC1(C)C , is 76.8%

viability, T/C recorded for this compound, CCc1c2c(nc3ccc(O)cc13)-c1cc3c(c(=O)n1C2)COC(=O)[C@]3(O)CC + Cc1cccc(N(C)C(=O)C2C(O)CCN2c2nc(C)cc(C(F)(F)F)c2C#N)c1 , is 5.13%

viability, T/C recorded for this compound, COc1ccc([C@@H](O)c2cc(-c3ncnc4cc(N5CCOCC5)ccc34)c(F)cc2Cl)nn1 + Nc1ccc(C#CCN(C(=O)Cc2ncc(C(F)(F)F)cc2C(F)(F)F)c2ccc(F)cc2)nn1 , is 74.9%

viability, T/C recorded for this compound, CC1COCCN1c1cc(C2(O)CC3CCC(C2)O3)c2cnn(-c3ccn[nH]3)c2n1 (stereo not given) + Nc1ccc(C#CCN(C(=O)Cc2ncc(C(F)(F)F)cc2C(F)(F)F)c2ccc(F)cc2)nn1 , is 42.6%

* * *

Parameter: viability, T/C. Scope: all listed entries.
- System: 885724-159-R-J1-PDC complex spheroid viability
- Procedure Summary: Anticancer human tumor 885724-159-R-J1-PDC cell line growth inhibition [POLQ];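 further: spheroids exposed to compounds for 7 days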
- Measurement Setup: second compound 0.1 µM; first compound 10 µM; hits give low values
// return numeric value only (unit: %, not printed)

viability, T/C recorded for this compound, Nc1ccn(C2OC(CO)C(O)C2(F)F)c(=O)n1 (stereo unspecified) + Cc1cccc(N(C)C(=O)C2C(O)CCN2c2nc(C)cc(C(F)(F)F)c2C#N)c1 , is 45.9

viability, T/C recorded for this compound, CC1COCCN1c1cc(-c2ccnn2C)c2ccnc(-c3ccn[nH]3)c2n1 (stereo unspecified) + COC1C(OC(N)=O)C(O)C(Oc2ccc3c(O)c(NC(=O)c4ccc(O)c(CC=C(C)C)c4)c(=O)oc3c2C)OC1(C)C , is 35.6

viability, T/C recorded for this compound, C#Cc1c(F)ccc2cc(O)cc(-c3ncc4c(N5CC6CCC(C5)N6)nc(OCC56CCCN5CC(F)C6)nc4c3F)c12 (stereo unspecified) + Nc1ccc(C#CCN(C(=O)Cc2ncc(C(F)(F)F)cc2C(F)(F)F)c2ccc(F)cc2)nn1 , is 25.3

viability, T/C recorded for this compound, COc1cccc2c1C(=O)c1c(O)c3c(c(O)c1C2=O)CC(O)(C(=O)CO)CC3OC1CC(N)C(O)C(C)O1 (stereo unspecified) + COC1C(OC(N)=O)C(O)C(Oc2ccc3c(O)c(NC(=O)c4ccc(O)c(CC=C(C)C)c4)c(=O)oc3c2C)OC1(C)C , is 7.37

viability, T/C recorded for this compound, O=c1[nH]cc(F)c(=O)[nH]1 + Cc1cccc(N(C)C(=O)C2C(O)CCN2c2nc(C)cc(C(F)(F)F)c2C#N)c1 , is 74.7

* * *

- Tested on: 885724-159-R-J1-PDC complex spheroid viability
- Procedure Summary: Anticancer human tumor 885724-159-R-J1-PDC cell line growth inhibition [POLQ];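 further: spheroids exposed to compounds for 7 days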
- Measurement Setup: second compound 0.0316 µM; first compound 0.316 µM; hits give low values
Readout Label: viability, T/C (%)
// return numeric value only (unit: %, not printed)

Consider the worked cases shown below.
>  <Molecule>
CC(C)n1c(=O)n(C)c2cnc3cc(F)c(-c4ccc(OCCCN5CCCCC5)nc4)cc3c21 + COC1C(OC(N)=O)C(O)C(Oc2ccc3c(O)c(NC(=O)c4ccc(O)c(CC=C(C)C)c4)c(=O)oc3c2C)OC1(C)C

>  <Target Or Test System>
885724-159-R-J1-PDC complex spheroid viability

>  <Readout Label>
viability, T/C

>  <Unit Text>
%

>  <Data Value>
97.5

$$$$
>  <Molecule>
Nc1ccn(C2OC(CO)C(O)C2(F)F)c(=O)n1 (stereo unspecified) + COC1C(OC(N)=O)C(O)C(Oc2ccc3c(O)c(NC(=O)c4ccc(O)c(CC=C(C)C)c4)c(=O)oc3c2C)OC1(C)C

>  <Target Or Test System>
885724-159-R-J1-PDC complex spheroid viability

>  <Readout Label>
viability, T/C

>  <Unit Text>
%

>  <Data Value>
51.4

$$$$
>  <Molecule>
C=CCn1c(=O)c2cnc(Nc3ccc(N4CCN(C)CC4)cc3)nc2n1-c1cccc(C(C)(C)O)n1 + Nc1ccc(C#CCN(C(=O)Cc2ncc(C(F)(F)F)cc2C(F)(F)F)c2ccc(F)cc2)nn1

>  <Target Or Test System>
885724-159-R-J1-PDC complex spheroid viability

>  <Readout Label>
viability, T/C

>  <Unit Text>
%

>  <Data Value>
57.4

$$$$

Could you now look at the following molecule, please?
viability, T/C recorded for this molecule, CC1COCCN1c1cc(C2(O)CC3CCC(C2)O3)c2cnn(-c3ccn[nH]3)c2n1 (stereo unspecified) + Nc1ccc(C#CCN(C(=O)Cc2ncc(C(F)(F)F)cc2C(F)(F)F)c2ccc(F)cc2)nn1 , is 50.8

* * *

- Tested on: 885724-159-R-J1-PDC complex spheroid viability
- Procedure Summary: Anticancer human tumor 885724-159-R-J1-PDC cell line growth inhibition [POLQ];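 further: spheroids exposed to compounds for 7 days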
- Measurement Setup: second compound 10 µM; first compound 3.16 µM; hits give low values
Parameter: viability, T/C. Scope: all listed entries.
// return numeric value only (unit: %, not printed)

>  <Compound>
CCCS(=O)(=O)Nc1ccc(F)c(C(=O)c2c[nH]c3ncc(-c4ccc(Cl)cc4)cc23)c1F + COC1C(OC(N)=O)C(O)C(Oc2ccc3c(O)c(NC(=O)c4ccc(O)c(CC=C(C)C)c4)c(=O)oc3c2C)OC1(C)C

>  <Data Value>
152

$$$$
>  <Compound>
COc1cc(C2c3cc4c(cc3C(OC3OC5COC(C)OC5C(O)C3O)C3COC(=O)C23)OCO4)cc(OC)c1O (stereo unspecified) + COC1C(OC(N)=O)C(O)C(Oc2ccc3c(O)c(NC(=O)c4ccc(O)c(CC=C(C)C)c4)c(=O)oc3c2C)OC1(C)C

>  <Data Value>
54.4

$$$$
>  <Compound>
C#Cc1c(F)ccc2cc(O)cc(-c3ncc4c(N5CC6CCC(C5)N6)nc(OCC56CCCN5CC(F)C6)nc4c3F)c12 (stereo unspecified) + Cc1cccc(N(C)C(=O)C2C(O)CCN2c2nc(C)cc(C(F)(F)F)c2C#N)c1

>  <Data Value>
36.2

$$$$
>  <Compound>
Nc1ccn(C2OC(CO)C(O)C2(F)F)c(=O)n1 (stereo unspecified) + Cc1cccc(N(C)C(=O)C2C(O)CCN2c2nc(C)cc(C(F)(F)F)c2C#N)c1

>  <Data Value>
58

$$$$
>  <Compound>
CCc1cc2c(N3CCc4c(cc(Cn5ccnc5)cc4-c4cn(C)nc4C(F)(F)F)C3=O)cc(C)nc2c(OC)n1 + Nc1ccc(C#CCN(C(=O)Cc2ncc(C(F)(F)F)cc2C(F)(F)F)c2ccc(F)cc2)nn1

>  <Data Value>
89.9

$$$$

Could you now look at the following compound, please?
viability, T/C recorded for this compound, CC1COCCN1c1cc(-c2ccnn2C)c2ccnc(-c3ccn[nH]3)c2n1 (stereo unspecified) + Cc1cccc(N(C)C(=O)C2C(O)CCN2c2nc(C)cc(C(F)(F)F)c2C#N)c1 , is 49.6
